src = ChEMBL document CHEMBL4742385

Test system: RPMI-8226
Assay: Antiproliferative activity against human RPMI-8226 assessed as inhibition of cell growth at 1 uM after 8 days measured after Celltiter-Glo assay relative to control
Format: functional
Conditions: time 8 day
readout: inhibition (INH) (%)
Provide only the numeric value, understood in %.

The examples below pair each entry with its known result.
> print(dat)
                         structure.notation           readout  observed
1  O=C(/C=C/c1cnccc1-c1cnn(C2CC2)c1)Nc1ccc(CN2CC(F)(F)C2)cc1.O=C(O)/C=C/C(=O)O  inhibition (INH)        70
2  O=C(/C=C/c1cnccc1-c1cnn(C2CC2)c1)Nc1ccc(CN2CC(F)(F)C2)cc1.O=C(O)CCC(=O)O  inhibition (INH)        66
3  O=C(/C=C/c1cnccc1-c1cnn(C2CC2)c1)Nc1ccc(CN2CC(F)(F)C2)cc1.O=P(O)(O)O.O=P(O)(O)O  inhibition (INH)        69
4  CS(=O)(=O)O.O=C(/C=C/c1cnccc1-c1cnn(C2CC2)c1)Nc1ccc(CN2CC(F)(F)C2)cc1  inhibition (INH)        70

-- ask Look up inhibition (INH) with RPMI-8226 for this compound: O=C(/C=C/c1cnccc1-c1cnn(C2CC2)c1)Nc1ccc(CN2CC(F)(F)C2)cc1.O=S(=O)(O)O
-- reply 70

###

Target: Cyclin-C/Cyclin-dependent kinase 19 (Homo sapiens) (UniProt Q9BWU1+P24863)
Experiment: Inhibition of humanGST-tagged CDK19/Cyc C expressed in Sf21 cells at 1 uM measured after 1 hr by fluorescence plate reader relative to control
Listed here are compounds together with their documented inhibition.
Provide only the numeric value, understood in %.

> print(dat)
                         structure.notation     readout  observed
1  Cn1cc(-c2ccncc2/C=C/C(=O)Nc2ccc(Cn3cccn3)cc2)cn1  inhibition        97
2  O=C(/C=C/c1cnccc1-c1ccns1)Nc1ccc(CN2CCOCC2)cc1  inhibition        98
3  Cc1ncc(-c2ccncc2/C=C/C(=O)Nc2ccc(CN3CCOCC3)cc2)s1  inhibition        95
4  O=C(/C=C/c1cnccc1-c1cnn(C2CC2)c1)Nc1ccc2c(c1)CN(CC(F)(F)C(F)(F)F)CC2  inhibition        94
5  COC1CN(Cc2ccc(NC(=O)/C=C/c3cnccc3-c3cnn(C4CC4)c3)cc2)C1  inhibition        99
6  O=C(/C=C/c1cnccc1-c1cnn(C2CC2)c1)Nc1ccc2c(ccn2CC(F)(F)F)c1  inhibition        98

Then there is this compound:
-- ask Using the record for Cn1cc(-c2ccncc2/C=C/C(=O)Nc2ccc(CNC3CC3)cc2)cn1 , report its inhibition.
-- reply 96

###

Molecular target: CDK8/Cyclin C (Homo sapiens) (UniProt P49336+P24863)
Experiment: Inhibition of human CDK8/Cyc C expressed in Sf21 cells at 1 uM measured after 1 hr by fluorescence plate reader relative to control
Listed here are compounds together with their documented inhibition.
Provide only the numeric value, understood in %.

-- ask Using the record for O=C(/C=C/c1cnccc1-c1cnn(CC2CC2)c1)Nc1ccc(CCN2CCOCC2)cc1 , report its inhibition.
-- reply 94

-- ask Using the record for Cn1cc(-c2ccncc2/C=C/C(=O)Nc2ccc3c(c2)CCCC3=O)cn1 , report its inhibition.
-- reply 96

-- ask Using the record for Cn1cc(-c2ccncc2/C=C/C(=O)Nc2ccc(CN3CC(F)(F)OC(F)(F)C3)cc2)cn1 , report its inhibition.
-- reply 97

-- ask Using the record for Cn1cc(-c2c(F)cncc2/C=C/C(=O)Nc2ccc(CN3CC(F)(F)C3)cc2)cn1 , report its inhibition.
-- reply 103

-- ask Using the record for O=C(/C=C/c1cnccc1-c1cnn(C2CC2)c1)Nc1ccc(CN2CC3(COC3)C2)cc1 , report its inhibition.
-- reply 110

-- ask Using the record for Cn1cnc2ccc(-c3ccncc3/C=C/C(=O)Nc3ccc(CN4CCOCC4)cc3)cc21 , report its inhibition.
-- reply 102

-- ask Using the record for CN(C)CCc1ccc(NC(=O)/C=C/c2cnccc2-c2cnn(C)c2)cc1 , report its inhibition.
-- reply 98

-- ask Using the record for CN1CCc2ccc(NC(=O)/C=C/c3cnccc3-c3cnn(C)c3)cc2C1 , report its inhibition.
-- reply 100

-- ask Using the record for Cc1cc(NC(=O)/C=C/c2cnccc2-c2cnn(C3CC3)c2)ccc1CN1CCOCC1 , report its inhibition.
-- reply 98
